Please provide measured EC50 for the entries that follow.
Biological target: human NAMPT (Homo sapiens, UniProt P43490)
Sequence (P43490 whole entry): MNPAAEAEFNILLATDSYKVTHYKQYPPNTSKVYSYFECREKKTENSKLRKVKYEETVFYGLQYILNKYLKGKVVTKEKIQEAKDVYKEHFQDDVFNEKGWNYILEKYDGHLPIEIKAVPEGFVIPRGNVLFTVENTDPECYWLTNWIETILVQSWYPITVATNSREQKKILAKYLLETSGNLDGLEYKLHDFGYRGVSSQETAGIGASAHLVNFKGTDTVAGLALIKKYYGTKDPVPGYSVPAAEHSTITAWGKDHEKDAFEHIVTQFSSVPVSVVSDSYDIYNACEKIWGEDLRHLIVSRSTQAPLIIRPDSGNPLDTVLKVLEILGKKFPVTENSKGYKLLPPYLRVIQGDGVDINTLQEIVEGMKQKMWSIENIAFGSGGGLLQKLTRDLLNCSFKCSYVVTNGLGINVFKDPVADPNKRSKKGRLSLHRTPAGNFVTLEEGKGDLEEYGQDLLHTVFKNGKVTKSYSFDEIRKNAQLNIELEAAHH
Assay: Human recombinant enzyme assay (NMN fluorescence biochemical assay, activation of NAMPT)
Conditions: Table A; human recombinant NAMPT, NMN formation, 60 min; read-out: EC50 Human
Method: Compounds described herein were assayed for their ability to stimulate the synthesis of nicotinamide mononucleotide (NMN) by the enzyme NAMPT. […] Dose responses were measured using an assay to detect the formation of nicotinamide mono-nucleotide. […] The plates were read for fluorescence (Excitation/Emission=355 nm/460 nm) using an EnVision plate reader after 40 mins of incubation at ambient temperature.
Give bare numbers, in µM.

Some solved entries appear below for comparison.
compound	EC50, µM
CN(C(=O)CCCCCNC(=O)NCc1cn[nH]c1)c1ccccc1F [Compound 287]	4.4
Cc1cccc(C)c1C(=O)N1CCC(CCCCNC(=O)NCc2ccc(Cl)cc2)CC1 [Compound 319]	0.8
COc1ccc(CNC(=O)NC2CC3(CC(Cc4ccncc4)C3)C2)cc1 (centres unmarked) [Compound 330]	3.9
O=C(NCc1ccc(Cl)cc1)NC1CC2(CC(Cn3cncn3)C2)C1 (centres unmarked) [Compound 339]	6.5

# input for lookup
Lab entry: human NAMPT (Homo sapiens, UniProt P43490) assay, compound O=C(NCc1ccc(Cl)cc1)NC1CC2(CC(CNC(=O)C3CCS(=O)(=O)CC3)C2)C1 (centres unmarked) [Compound 243] , EC50 = 4.2

----------
Biological target: human NAMPT (Homo sapiens, UniProt P43490)
Assay: Human recombinant enzyme assay (NMN fluorescence biochemical assay, activation of NAMPT)
Conditions: Table A; human recombinant NAMPT, NMN formation, 60 min
# if value of AC1.4 Human reaches 3 µM, tag Fulfilled; if it stays below, tag Not fulfilled

API: above_or_equal(metric=AC1.4 Human, cutoff=3 µM) for item Cc1ccccc1C(=O)NCCCCCNC(=O)NCc1ccc(Cl)cc1 Not fulfilled

----------
Target: human NAMPT (Homo sapiens, UniProt P43490)
Assay: Human recombinant enzyme assay (NMN fluorescence biochemical assay, activation of NAMPT)
Settings: Table A; human recombinant NAMPT, NMN formation, 60 min
measuredProperty: AC1.4 Human
Write the numeric value and append its unit.

molecule	testValue
COc1ccc(CNC(=O)NC2CC3(C2)CN(C(=O)C(C)(C)c2ccccc2)C3)cc1	1.8 µM
COc1ccc(CNC(=O)NC2CC3(C2)CC(C(=O)N2CC(c4ccccc4)C2)C3)cc1 (stereo not drawn)	2.5 µM

# input for lookup
AC1.4 Human measured on Cc1ccccc1N(C)C(=O)CCCCCNC(=O)NCc1ccc(Cl)cc1 = 0.5 µM

----------
Target: endogenous NAMPT (Homo sapiens)
Construct: stimulate the endogenous NAMPT in a native cellular environment; endogenous in cells; host or cells: SH-SY5Y neuroblastoma cells
Assay: Cellular NAD+ modulation assay in neuroblastoma SH-SY5Y cells
Type: cell-based
Conditions: Table B; SH-SY5Y cells, cellular NAD levels, doxorubicin, 40 hours
Category scheme (AC0.3): low interval (below 0.3 µM), middle interval (0.3 µM to below 0.6 µM), high interval (0.6 µM or more)

compound	cat
O=C(NCc1ccc(Cl)cc1)NC1CC2(CC(Cc3ccncc3)C2)C1 (centres unmarked)	low interval
CN(C(=O)[C@H]1C[C@@]2(C[C@H](NC(=O)NCc3ccc(Cl)cc3)C2)C1)C1CCOC1 (some centres unmarked)	middle interval
NC(=O)c1ccc(CNC(=O)NC2CC3(C2)CC(NC(=O)c2ccccc2)C3)cc1 (centres unmarked)	high interval
COc1ccc(CNC(=O)NCCCCC2CCN(C(=O)c3ccccc3)CC2)cc1	middle interval
COc1ccc(CNC(=O)NC2CC3(CC(Cc4ccncc4)C3)C2)cc1 (centres unmarked)	middle interval
COc1ccc(CNC(=O)NC2CC3(C2)CC(C(=O)N2CCN(CC(C)(C)O)CC2)C3)cc1 (centres unmarked)	high interval

Sort into band: Cc1ccc(C(=O)N2CC3(CC(NC(=O)NCc4ccc(Cl)cc4)C3)C2)cc1 low interval

Sort into band: COc1ccc(CNC(=O)NC2CC3(C2)CC(C(=O)N2CCCc4cc(C)ccc42)C3)cc1 (centres unmarked) high interval

Sort into band: COc1ccc(CNC(=O)NC2CC3(C2)CC(C(=O)N(C)c2ccccc2)C3)cc1 (centres unmarked) high interval

Sort into band: Cc1ncccc1CC1CC2(C1)CC(NC(=O)NCc1ccc(Cl)cc1)C2 (centres unmarked) low interval

Sort into band: Cc1ncccc1C(=O)NC1CC2(CC(NC(=O)NCc3ccc(Cl)cc3)C2)C1 (centres unmarked) high interval

Sort into band: COc1ccc(CNC(=O)NC2CC3(C2)CN(C(=O)c2ccc(C)nc2)C3)cc1 high interval
